Give pIC50 for every item shown.
# ASSAY SYSTEM: KRAS-G12V (Homo sapiens, UniProt P01116, G12V)
# Construct: N-terminal biotin-acceptor peptide […]
# Sequence (P01116 with tags, fused parts or gaps isoform P01116-2 G12V): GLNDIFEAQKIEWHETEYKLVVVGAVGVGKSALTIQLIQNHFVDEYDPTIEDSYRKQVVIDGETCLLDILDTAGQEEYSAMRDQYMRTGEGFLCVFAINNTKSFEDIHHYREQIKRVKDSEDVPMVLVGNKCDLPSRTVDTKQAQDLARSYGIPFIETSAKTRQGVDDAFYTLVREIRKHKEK
# TEST DESCRIPTION: SOS-catalyzed nucleotide exchange assay (Procedure A, TR-FRET)
# TEST SETTINGS: 60 min preincubation, SOS + GTP, read-out: KRAS G12V GNE IC50
Reminder that pIC50 means the negative base-10 logarithm of the concentration expressed in mol/L.

Suppose we examine the compound C[C@H]1CCCCCN1c1nc(OC[C@@]23CCCN2C[C@H](F)C3)nc2c(F)c(-c3ccc(F)c4sc(N)c(C#N)c34)c(Cl)cc12 ; what pIC50 value has been reported?
7.39

Note, next up: Cc1cc(N)nc(-c2c(Cl)cc3c(N4CCCOCC4)nc(OC[C@@]45CCCN4C[C@H](F)C5)nc3c2F)c1C(F)(F)F
7.11

Next compound up: C[C@H]1CCOCCN1c1nc(OC[C@@]23CCCN2C[C@H](F)C3)nc2c(F)c(-c3ccc(F)c4sc(N)c(C#N)c34)c(Cl)cc12 (single isomer, unassigned) [Ex. 19]
8.63

Same for N#Cc1c(N)sc2c(F)ccc(-c3c(Cl)cc4c(N5CCOCCC5C(F)(F)F)nc(OC[C@@]56CCCN5C[C@H](F)C6)nc4c3F)c12 (stereo partly drawn)
7.70

Now consider N#Cc1c(N)sc2c(F)ccc(-c3ncc4c(N5CCCOCC5)nc(OC[C@@]56CCCN5C[C@H](F)C6)nc4c3F)c12 and answer again.
7.22

Note, next up: CC(C)(C)NC[C@@]1(COc2nc(N3CCCOCC3)c3cc(Cl)c(-c4ccc(F)c5sc(N)c(C#N)c45)c(F)c3n2)CC1(F)F
7.75

----------
# ASSAY SYSTEM: KRAS G12D (amino acids 1-169) (Homo sapiens, UniProt P01116, G12D)
# Construct: made in house; host or cells: E. coli
# Sequence (P01116 with tags, fused parts or gaps isoform P01116-2 G12D): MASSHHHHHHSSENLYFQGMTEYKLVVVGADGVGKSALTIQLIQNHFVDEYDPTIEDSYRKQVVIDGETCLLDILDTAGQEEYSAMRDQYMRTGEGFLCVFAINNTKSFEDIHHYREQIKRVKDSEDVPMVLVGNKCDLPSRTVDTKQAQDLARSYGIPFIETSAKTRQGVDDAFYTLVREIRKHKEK
# TEST DESCRIPTION: SOS-catalyzed nucleotide exchange assay (Procedure B, BODIPY FL GDP displacement)
# Type: biochemical
# TEST SETTINGS: Procedure B (Example Nos. 18, 21, 23, 33-34); 1 hour incubation, SOS1 + GMPPNP; read-out: KRAS G12D GNE IC50
RESULT TYPE: pIC50
Interpret pIC50 as the negative base-10 log of the concentration measured in mol/L.

Field request: pIC50 | item: N#Cc1c(N)sc2c(F)cc(F)c(-c3ncc4c(N5CCCOCC5)nc(OC[C@@]56CCCN5C[C@H](F)C6)nc4c3F)c12 [Ex. 23]
6.85

Also check N#Cc1c(N)sc2c(F)ccc(-c3c(C(F)(F)F)cc4c(N5CCCOCC5)nc(OC[C@@]56CCCN5C[C@H](F)C6)nc4c3F)c12 [Ex. 34]
8.46

Also need N#Cc1c(N)sc2c(F)ccc(-c3c(Cl)cc4c(N5CCCOCC5)nc(OC[C@@]56CCCN5C[C@H](F)C6)nc4c3F)c12 (single isomer, unassigned) [Ex. 18] , thanks.
8.27

N#Cc1c(N)sc2c(F)ccc(-c3c(Cl)cc4c(N5CCCOCC5)nc(OC[C@]5(CO)CC5(F)F)nc4c3F)c12 (single isomer, unassigned) [Ex. 33] , same question.
5.31

Consider next the compound C[C@H]1CCOCCN1c1nc(OC[C@@]23CCCN2C[C@H](F)C3)nc2c(F)c(-c3ccc(F)c4sc(N)c(C#N)c34)ncc12 [compound 21] in the same way.
6.87

----------
I'd be grateful if you could share measured pIC50 for these entries.
# ASSAY SYSTEM: KRAS-G12D (Homo sapiens, UniProt P01116, G12D)
# Construct: N-terminal biotin-acceptor peptide […]
# Sequence (P01116 with tags, fused parts or gaps isoform P01116-2 G12D): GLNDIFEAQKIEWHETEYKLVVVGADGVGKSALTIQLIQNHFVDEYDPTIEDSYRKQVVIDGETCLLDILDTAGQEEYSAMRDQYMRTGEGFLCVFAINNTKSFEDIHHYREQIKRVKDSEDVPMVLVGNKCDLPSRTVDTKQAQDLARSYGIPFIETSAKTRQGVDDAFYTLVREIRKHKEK
# TEST DESCRIPTION: SOS-catalyzed nucleotide exchange assay (Procedure A, TR-FRET)
# TEST SETTINGS: 60 min preincubation, SOS + GTP, read-out: KRAS G12D GNE IC50
FYI, pIC50 means -log10 of a concentration in mol per litre.

Fill blank: measured pIC50 of the molecule C[C@H]1CCOCCN1c1nc(OC[C@@]23CCCN2C[C@H](F)C3)nc2c(F)c(-c3ccc(F)c4sc(N)c(C#N)c34)ccc12 is ____.
6.32

Also CC(C)(C)NC[C@@]1(COc2nc(N3CCCOCC3)c3cc(Cl)c(-c4ccc(F)c5sc(N)c(C#N)c45)c(F)c3n2)CC1(F)F , if possible.
6.61

# iterate: CC1COCCN(c2nc(OC[C@@]34CCCN3C[C@H](F)C4)nc3c(F)c(-c4ccc(F)c5sc(N)c(C#N)c45)c(Cl)cc23)C1 (stereo partly drawn)
8.00

----------
# ASSAY SYSTEM: KRAS-G12V (Homo sapiens, UniProt P01116, G12V)
# Construct: N-terminal biotin-acceptor peptide […]
# TEST DESCRIPTION: SOS-catalyzed nucleotide exchange assay (Procedure A, TR-FRET)
# TEST SETTINGS: 60 min preincubation, SOS + GTP, read-out: KRAS G12V GNE IC50
RESULT TYPE: pIC50
Note on units: pIC50 is unitless, being -log10 of a concentration expressed in mol/L.

Consider the compound shown here: C[C@H]1CCOCCN1c1nc(OC[C@@]23CCCN2C[C@H](F)C3)nc2cc(-c3ccc(F)c4sc(N)c(C#N)c34)c(C(F)(F)F)nc12 [compound 50] What is its recorded pIC50?
8.12

Also, Cc1cc(N)nc(-c2c(Cl)cc3c(N4CCCCOCC4)nc(OC[C@@]45CCCN4C[C@H](F)C5)nc3c2F)c1C(F)(F)F [Ex. 39] please.
7.49

Now the compound Cc1cc(N)nc(-c2c(F)cc3c(N4CC[C@@H]5[C@@H](C#N)[C@@H]5CC4)nc(OC[C@@]45CCCN4C[C@H](F)C5)nc3c2F)c1C(F)(F)F [Ex. 45]
5.83

----------
# ASSAY SYSTEM: KRAS-G13D (Homo sapiens, UniProt P01116, G13D)
# Construct: N-terminal biotin-acceptor peptide […]
# Sequence (P01116 with tags, fused parts or gaps isoform P01116-2 G13D): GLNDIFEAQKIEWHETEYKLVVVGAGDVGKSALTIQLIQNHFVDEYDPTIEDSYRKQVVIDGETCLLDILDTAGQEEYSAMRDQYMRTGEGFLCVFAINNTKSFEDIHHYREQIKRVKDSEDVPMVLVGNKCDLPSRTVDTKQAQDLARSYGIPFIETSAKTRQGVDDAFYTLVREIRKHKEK
# TEST DESCRIPTION: SOS-catalyzed nucleotide exchange assay (Procedure A, TR-FRET)
# TEST SETTINGS: 60 min preincubation, GTP, read-out: KRAS G13D GNE IC50
# Protocol: Procedure for SOS-Catalyzed Nucleotide Exchange Assay for KRAS-G12C/D/V, G13D, HRAS, and NRAS (Procedure A) […] The time-resolved fluorescence resonance energy transfer (TR-FRET) signal is measured on an Envision (PerkinElmer) plate reader: Excitation filter=340 nm; emission1=495 nm; emission2=520 nm; dichroic mirror=D400/D505; delay time=[…]. The signal of each well is determined as the ratio of the emission at 520 nm to that at 495 nm. […]
RESULT TYPE: pIC50
pIC50 is defined as minus the log10 of a concentration measured in mol/L.

Which pIC50 is listed for N#Cc1c(N)sc2c(F)ccc(-c3c(Cl)cc4c(N5CCOCC(F)C5)nc(OC[C@@]56CCCN5C[C@H](F)C6)nc4c3F)c12 (stereo partly shown) ?
8.16

Request: Cc1cc(N)nc(-c2c(Cl)cc3c(N4CCCCOCC4)nc(OC[C@@]45CCCN4C[C@H](F)C5)nc3c2F)c1C(F)(F)F
6.84

Subsequent entry: C[C@H]1CCOCCN1c1nc(OC[C@@]23CCCN2C[C@H](F)C3)nc2c(F)c(-c3ccc(F)c4sc(N)c(C#N)c34)c(Cl)cc12 (single isomer, unassigned) [Ex. 19]
8.63

Continue with CC1COCCCN1c1nc(OC[C@@]23CCCN2C[C@H](F)C3)nc2c(F)c(-c3ccc(F)c4sc(N)c(C#N)c34)c(Cl)cc12 (stereo partly shown)
7.87

Continue with N#Cc1c(N)sc2c(F)ccc(-c3c(Cl)cc4c(N5CCOCCC5C5CC5)nc(OC[C@@]56CCCN5C[C@H](F)C6)nc4c3F)c12 (stereo partly shown)
7.20

Same again, this time with CC1(NC[C@@]2(COc3nc(N4CCCOCC4)c4cc(Cl)c(-c5ccc(F)c6sc(N)c(C#N)c56)c(F)c4n3)CC2(F)F)COC1
6.03

Entry CC1(F)COCCN(c2nc(OC[C@@]34CCCN3C[C@H](F)C4)nc3c(F)c(-c4ccc(F)c5sc(N)c(C#N)c45)c(Cl)cc23)C1 (stereo partly shown) please
7.66
